This collection of values is drawn from patent EP1140830B1.

Provide the recorded pIC50 for the entries that follow.
molecular target: human 5HT1A receptor (Homo sapiens); assay: 5-HT1A Receptor Intrinsic Activity Assay (forskolin-stimulated cAMP in transfected CHO cells, RIA); conditions: antagonist mode: reversal of agonist-induced activity, antagonist preincubated 20 minutes before agonist and forskolin
Sequence (P08908 whole entry): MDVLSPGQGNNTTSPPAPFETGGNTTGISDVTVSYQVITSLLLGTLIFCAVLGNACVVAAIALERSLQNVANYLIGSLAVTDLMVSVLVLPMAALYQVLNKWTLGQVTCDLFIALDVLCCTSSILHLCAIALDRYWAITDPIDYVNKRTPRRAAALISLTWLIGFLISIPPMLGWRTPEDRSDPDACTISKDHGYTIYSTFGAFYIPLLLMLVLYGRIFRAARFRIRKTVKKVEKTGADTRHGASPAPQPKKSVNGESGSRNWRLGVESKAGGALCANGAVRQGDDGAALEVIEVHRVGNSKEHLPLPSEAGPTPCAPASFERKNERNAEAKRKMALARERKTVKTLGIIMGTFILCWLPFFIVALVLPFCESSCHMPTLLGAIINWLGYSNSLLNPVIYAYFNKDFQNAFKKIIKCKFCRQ
Keep it numeric: pIC50 is minus log10 of the concentration in mol/L.

Query :: Look at this molecule and give its reported pIC50. COc1ccc(F)cc1C1CCN(C[C@@H](Cc2ccccc2)N(C)C(=O)C2(C)CCCCC2)CC1
Result :: 7.95

Query :: Need pIC50, item COc1ccccc1C1CCN(C[C@@H](Cc2ccccc2)NC(=O)C2(C)CCCCC2)CC1
Result :: 9.54
